# measured.on: acetylcholine receptor
# assay.notes: SPR, AchR immobilized on CM5 chip, peptide 10 uM
Reported Binding affinity (RU) values for a set of binders

KKRIYR [6mer-1-346] : 123 RU
RRRFSK [6mer-1-368] : 145 RU
KKLQTK [6mer-1-350] : 153 RU
RKYHHR [6mer-1-738] : 25 RU
KRLLCK [6mer-1-340] : 142 RU
KRMMVR [6mer-1-760] : 21 RU
KKFTPK [6mer-1-784] : 33 RU

Please examine the following record next.
Problem: Which Binding affinity (RU) value belongs to KRQIQK [6mer-1-396] ?
Solution: 148 RU
